ASSAY_INFO: Quantitative High-Throughput drug screen in 47 multiple myeloma cell lines against the NCATS MIPE library collection: NCIH929_DSMZ cell viability assay (AID 1918978); also: nearly all actives have a fitted effect of over 35% in size
ASSAY_CONTEXT: NCI-H929 myeloma viability, CellTiter-Glo ATP, 48 h; series mostly up to 45.8 µM
Records with an inconclusive call do not appear. Calls of active or inactive are those of the source. Calls follow the shape of the dose curve; as a rule, active = well fitted cell-killing curve with a large enough effect; inconclusive = small, poorly fitted or top-dose-only effect; inactive = no such curve, though single readings can be large or run the other way.
// one of 1 = active, -1 = inactive, no free text

Study these solved cases before continuing.
| COMPOUND | CATEGORY_LABEL |
| --- | --- |
| CC(=O)NCC(=O)N1[C@H]2CC[C@H]1c1cc(Nc3ncc(C(F)(F)F)c(NC4CCC4)n3)ccc12 | 1 |
| Cn1cc(C2=C(c3c4n(c5ccccc35)CCC(CN)C4)C(=O)NC2=O)c2ccccc21 (stereo not drawn) | 1 |

[in] State the result this test recorded for `COC(=O)[C@H](CCCN=C(N)N)NS(=O)(=O)c1ccc(C)cc1` .
[out] -1

[in] State the result this test recorded for `Oc1ccc(-c2ccc(-c3cc(Nc4cccc(CNC5CC5)c4)n[nH]3)cc2)c(O)c1` .
[out] 1

[in] State the result this test recorded for `O=C1c2c(O)cccc2[C@@H]([C@@H]2O[C@H](CO)[C@@H](O)[C@H](O)[C@H]2O)c2cc(CO)cc(O)c21` .
[out] -1

[in] State the result this test recorded for `CCc1ccc(C(=O)Nc2cc(CN3CCN(C)CC3)cc(C(F)(F)F)c2)cc1C#Cc1cnc2ccnn2c1` .
[out] 1

[in] State the result this test recorded for `COc1cc(N2CCC(C(N)=O)CC2)ccc1Nc1nc(N)c(Cl)c(Nc2ccccc2S(=O)(=O)C(C)C)n1` .
[out] 1

[in] State the result this test recorded for CC(=O)O[C@@]12CO[C@H]1C[C@H](O)[C@@]1(C)C(=O)[C@H](O)C3=C(C)[C@@H](OC(=O)C(O)[C@@H](NC(=O)OC(C)(C)C)c4ccccc4)C[C@@](O)([C@@H](OC(=O)c4ccccc4)[C@@H]21)C3(C)C (stereo partly drawn) .
[out] -1

* * *

Exercise: state measured Potency for each of the molecules provided.
ASSAY_INFO: Quantitative High-Throughput drug screen in 47 multiple myeloma cell lines against the NCATS MIPE library collection: NCIH929_DSMZ cell viability assay (AID 1918978); also: nearly all actives have a fitted effect of over 35% in size; also: potency is read from the fitted curve at half-maximal effect
ASSAY_CONTEXT: NCI-H929 myeloma viability, CellTiter-Glo ATP, 48 h; series mostly up to 45.8 µM
Records with an inconclusive call do not appear. Calls of active or inactive are those of the source. The call rests on the fitted dose curve; in most records, active means well fitted cell-killing curve with a large enough effect; inconclusive means small, poorly fitted or top-dose-only effect; inactive means no such curve, though single readings can be large or run the other way.

These solved cases illustrate the format of a correct answer.
| MOL_SMILES | Potency |
| --- | --- |
| COc1cccc2c1C(=O)c1c(O)c3c(c(O)c1C2=O)C[C@@](O)(C(=O)CO)C[C@H]3O[C@H]1C[C@H](N)[C@H](O)[C@H](C)O1 | 0.0935 µM (active) |
| CC(C)[C@H](CO)Nc1nc(Nc2cccc(Cl)c2)c2ncn(C(C)C)c2n1 | 18.7 µM (active) |
| CNC(=O)c1ccc(Nc2cc(Nc3ccccc3S(=O)(=O)C(C)C)c3cc[nH]c3n2)nc1 | 0.935 µM (active) |

Then there is this molecule:
[in] May I ask what Potency has been recorded for `N#Cc1ccc(COC[C@H]2O[C@@H](n3c(NCc4ccc(Cl)c(Cl)c4)nc4c(N)ncnc43)[C@@H](O)[C@@H]2O)cc1` ?
[out] 20.9 µM (active)

* * *

ASSAY_INFO: Quantitative High-Throughput drug screen in 47 multiple myeloma cell lines against the NCATS MIPE library collection: ARP1_JJKsccF8 cell viability assay (AID 1918928; also: nearly all actives have a fitted effect of over 40% in size;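 as to viability: 100% = DMSO only wells and 0% = medium only wells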)
ASSAY_CONTEXT: ARP1 myeloma cells viability, CellTiter-Glo ATP, 48 h; series mostly up to 45.8 µM
Records with an inconclusive call do not appear. Calls of active or inactive are those of the source. Calls follow the shape of the dose curve; as a rule, active = well fitted cell-killing curve with a large enough effect; inconclusive = small, poorly fitted or top-dose-only effect, or effect the other way; inactive = no such curve, though single readings can be large or run the other way.
// one of 1 for active, -1 for inactive, no free text

| MOL_SMILES | CATEGORY_LABEL |
| --- | --- |
| COc1cccc2c1C(=O)c1c(O)c3c(c(O)c1C2=O)C[C@@](O)(C(=O)CO)C[C@H]3O[C@H]1C[C@H](N)[C@H](O)[C@H](C)O1 | 1 |
| CC[C@H]1OC(=O)[C@H](C)[C@@H](O[C@H]2C[C@@](C)(OC)[C@@H](O)[C@H](C)O2)[C@H](C)[C@@H](O[C@@H]2O[C@H](C)C[C@H](N(C)C)[C@@H]2O)[C@](C)(OC)C[C@@H](C)C(=O)[C@H](C)[C@@H](O)[C@]1(C)O | -1 |

As a next step, examine the compound that follows.
[in] State the result this test recorded for `Cn1c(Nc2ccc(C(F)(F)F)cc2)nc2cc(Oc3ccnc(-c4ncc(C(F)(F)F)[nH]4)c3)ccc21` .
[out] 1

* * *

Tested on: NIH3T3
ASSAY_INFO: Cytotoxic Profiling of Annotated Libraries Using Quantitative High-Throughput Screening (AID 1296008); also: % is scaled to controls: 0 for no effect and ±100 for the full control effect; nearly all actives have a fitted effect of over 60% in size
ASSAY_CONTEXT: Five cell lines viability, CellTiter-Glo ATP luminescence, 48-72 h; active compounds read low
Results filed as inconclusive are left out.
Exercise: state measured max response for each of the molecules provided.
Answers are plain numbers, in %.

For every record below, what is its max response?
1. C[C@H](NC(=O)[C@@H](O)c1cc(F)cc(F)c1)C(=O)N[C@@H]1C(=O)N(C)c2ccccc2-c2ccccc21
2. Nc1cccc2c1C(=O)N(C1CCC(=O)NC1=O)C2=O (stereo not drawn)
3. C=C(C)[C@@H]1CC[C@]2(C(=O)O)CC[C@]3(C)[C@H](CC[C@@H]4[C@@]5(C)CC[C@H](O)C(C)(C)[C@@H]5CC[C@]43C)[C@@H]12
4. CC(=O)OCC(=O)[C@@]12N=C(C)O[C@H]1C[C@H]1[C@@H]3CCC4=CC(=O)C=C[C@]4(C)[C@@H]3[C@@H](O)C[C@@]12C
5. O=C(C[C@@H]1CC=CCCC(=O)O[C@H](c2ccccc2)CNC1=O)NCc1ccc(Cl)cc1
6. COc1cc2ncnc(Nc3cccc(Br)c3)c2cc1OC
7. CCCCCCCN(CC)CCCC(O)c1ccc(NS(C)(=O)=O)cc1 (stereo not drawn)
8. CN(C)c1ccc2cc(C(=O)N[C@@H](CCCN=C(N)CCl)C(=O)NCc3ccccc3)ccc2c1

[out]
[-4.85, -1.24, 0.0342, -3.36, -2.63, -22, -1.95, -19.2]

* * *

System: WaGa
ASSAY_INFO: qHTS assay to identify novel small-molecules to repurpose for Merkel cell carcinoma treatment (AID 1296009); also: nearly all actives have a fitted effect of over 60% in size
ASSAY_CONTEXT: MCC and control cell lines, CellTiter-Glo viability, 72 h; series mostly up to 46 µM
Inconclusive results are not listed. Calls of active or inactive are those of the source. The call rests on the fitted dose curve; in most records, active means well fitted inhibition curve with a large enough effect; inconclusive means small, poorly fitted or top-dose-only effect; inactive means flat fitted curve, though single readings scatter. Non-standard residues stand in square brackets, D forms with d. Residues, ends and D or L forms follow the SMILES beside them. *: point of attachment. Nva = CCC[C@H](N)C(=O)O; Cbz = O=C(OCc1ccccc1)*
// one of active, inactive, no free text

Study these solved cases before continuing.
| MOLECULE | TESTED_ON | CATEGORY_LABEL |
| --- | --- | --- |
| C[C@](Cc1c[nH]c2ccccc12)(NC(=O)OC1C2CC3CC(C2)CC1C3)C(=O)NC[C@H](NC(=O)CCC(=O)O)c1ccccc1 (some centres undefined) | WaGa | inactive |
| CCC[C@@H](C=O)NC(=O)[C@H](CC(C)C)NC(=O)[C@H](CC(C)C)NC(=O)OCc1ccccc1 (Cbz-Leu-Leu-[Nva]-aldehyde) | WaGa | active |
| CC(C)C[C@@H](C=O)NC(=O)[C@H](CC(C)C)NC(=O)[C@H](CC(C)C)NC(=O)OCc1ccccc1 (Cbz-Leu-Leu-Leu-aldehyde) | WaGa | active |

As a next step, examine the molecule that follows.
[in] State the result this test recorded for `Cn1c(Nc2ccc(C(F)(F)F)cc2)nc2cc(Oc3ccnc(-c4ncc(C(F)(F)F)[nH]4)c3)ccc21` .
[out] active

* * *

ASSAY_INFO: qHTS Screen of the MIPE 4.0 Collection Against Ewings Sarcoma (RDES) (AID 1259252); also: nearly all actives have a fitted effect of over 35% in size
ASSAY_CONTEXT: RD-ES Ewing sarcoma viability, CellTiter-Glo, 48 h; series mostly up to 45.8 µM
Inconclusive results are not listed. Active and inactive are the calls of the source. Calls follow the shape of the dose curve; as a rule, active = well fitted inhibition curve with a large enough effect; inconclusive = small, poorly fitted or top-dose-only effect; inactive = no such curve, though single readings can be large or run the other way. Positions of bridges follow the written chain, without caps; N, C: chain ends. Non-standard residues stand in square brackets, D forms with d. Residues, ends and D or L forms follow the SMILES beside them. ξ: configuration not given here. *: point of attachment. Octanoyl(6-Me) = CCC(C)CCCCC(=O)*; ξThr(3R) = C[C@@H](O)C(N)C(=O)O; dDab = NCC[C@@H](N)C(=O)O; Dab = NCC[C@H](N)C(=O)O
// one of class 1 = active, class 0 = inactive, no free text

Study these solved cases before continuing.
| COMPOUND | CATEGORY_LABEL |
| --- | --- |
| COc1cccc2c1C(=O)c1c(O)c3c(c(O)c1C2=O)C[C@@](O)(C(=O)CO)C[C@@H]3O[C@H]1C[C@H](N)[C@H](OC2CCCCO2)[C@H](C)O1 (stereo partly specified) | class 1 |
| CCC(C(=O)O)C1CCC(C)C(C(C)C(O)C(C)C(=O)C(CC)C2OC3(C=CC(O)[C@@]4(CC[C@](C)(C5CC[C@@](O)(CC)C(C)O5)O4)O3)C(C)CC2C)O1 (stereo partly specified) | class 1 |
| O=C(O)CCCCC(CCSCc1ccccc1)SCc1ccccc1 (stereo unspecified) | class 0 |
| N#Cc1ccc(COC[C@H]2O[C@@H](n3c(NCc4ccc(Cl)c(Cl)c4)nc4c(N)ncnc43)[C@@H](O)[C@@H]2O)cc1 | class 1 |
| CCC(C)CCCCC(=O)N[C@@H](CCN)C(=O)NC(C(=O)N[C@H](CCN)C(=O)N[C@@H]1CCNC(=O)C([C@@H](C)O)NC(=O)[C@@H](CCN)NC(=O)[C@@H](CCN)NC(=O)[C@@H](CC(C)C)NC(=O)[C@H](Cc2ccccc2)NC(=O)[C@H](CCN)NC1=O)[C@@H](C)O (stereo partly drawn) ({Octanoyl(6-Me)}-[Dab][ξThr(3R)][dDab][dDab][Dab]F[dL][dDab][dDab][ξThr(3R)]; lactam 4-C) | class 0 |

As a next step, examine the compound that follows.
[in] State the result this test recorded for `O=C(O)[C@H](CC(=O)N1C[C@@H]2CCCC[C@H]2C1)Cc1ccccc1` .
[out] class 0
